We begin with a simple list: items and their reported INHIBITION.
Tested on: Plasmodium berghei
Assay: Screen against P. berghei liver stage (PbLuc), transformed with Luciferase, at 2uM
Assay type: functional, HepG2
Conditions: tested at 2 uM
Out of some 68,000 compounds screened, about 2,700 (4%) showed an effect of 50% or more. This excerpt belongs to a sample that is enriched for strong results.
measured endpoint: INHIBITION (%)

compound	subject of test	measured endpoint	unit	recorded measurement
O=S(=O)(NCCCn1cncn1)c1ccc2c(c1)CCC2	Plasmodium berghei	INHIBITION	%	54.99
N#Cc1ccc(N2CCC3(CC2)CC(N2CCOCC2)CO3)cc1 (configuration not stated)	Plasmodium berghei	INHIBITION	%	-0.69
Cc1ccn(CCC(=O)NCCc2ccco2)n1	Plasmodium berghei	INHIBITION	%	-0.14
O=C(NCC(=O)N1CCCCC1)c1sccc1C1CC1	Plasmodium berghei	INHIBITION	%	54.62
Cc1cc(CN2CCC(c3ccnn3CCO)CC2)no1	Plasmodium berghei	INHIBITION	%	20.28
O=S(=O)(NCCCn1cncn1)c1ccc2c(c1)CCO2	Plasmodium berghei	INHIBITION	%	-9.13
CN1CCN(C2COC3(CCN(c4ccc(C#N)cc4)CC3)C2)CC1 (configuration not stated)	Plasmodium berghei	INHIBITION	%	54.5
CCn1c(Nc2ccccc2OC)nc2c(C)nn(C)c2c1=O	Plasmodium berghei	INHIBITION	%	-18.88
CCc1ccc(S(=O)(=O)Nc2ccn(CC(=O)OC)n2)cc1	Plasmodium berghei	INHIBITION	%	11.9
CCCn1nc2c(cc1=O)CN(CCN1CCCC1=O)CC2	Plasmodium berghei	INHIBITION	%	-33.39
Cn1cccc1C(=O)N1CCN(CC2CC2)c2ncccc2C1	Plasmodium berghei	INHIBITION	%	8.13
O=C(NCC(=O)N1CCN(c2ccccc2)CC1)c1sccc1C1CC1	Plasmodium berghei	INHIBITION	%	-31.42
